Test system: UACC-62 melanoma
Assay: NCI tumour cell line growth inhibition, 48 h
Below, each of the compounds is paired with its reported TGI value.

>  <Compound>
Nc1nc(N)nc(-c2cnc3ccccc3c2)n1

>  <TGI>
> 100 µM

$$$$
>  <Compound>
COC1=C(C)C(=O)C2C(C1=O)C(c1ccc(OC)c(OC)c1)[C@H]2C (stereo partly drawn)

>  <TGI>
> 100 µM

$$$$
>  <Compound>
CNC(=S)NNC1=NCCCN1

>  <TGI>
> 100 µM

$$$$
>  <Compound>
C[C@@]12C[C@@H](c3ccccc3O1)N1CCSC1=N2

>  <TGI>
> 100 µM

$$$$
>  <Compound>
Oc1c(Cl)ccc2cccnc12

>  <TGI>
8.09 µM

$$$$
>  <Compound>
C=C1C(=O)O[C@H]2[C@H]1CC/C(COC(=O)NCc1c[nH]c3ccc(OC)cc13)=C\CC[C@@]1(C)O[C@@H]21

>  <TGI>
3.69 µM

$$$$
>  <Compound>
COC(=O)C(=C\Sc1ccccc1)/C=C/C(=O)OC(C)(C)C

>  <TGI>
28.8 µM

$$$$
>  <Compound>
CCCCC(SC(=S)N(CC)CC)C(=O)Nc1nc(CC(=O)OCC)cs1 (stereo not drawn)

>  <TGI>
> 100 µM

$$$$
>  <Compound>
NC(CCc1ccccc1)(C(=O)O)c1ccccc1 (stereo not drawn)

>  <TGI>
> 100 µM

$$$$
>  <Compound>
COC(=O)/C=C1/OC(c2ccc(Br)cc2)=C(Br)C1=O

>  <TGI>
20.5 µM

$$$$
>  <Compound>
CC(=O)N(/N=C\c1ccc([N+](=O)[O-])cc1)c1ccccc1

>  <TGI>
> 100 µM

$$$$
>  <Compound>
Cn1ccnc1SC(F)(F)c1nc2ccccc2o1

>  <TGI>
> 100 µM

$$$$
>  <Compound>
CCCCCCCCCCCCCCCCc1c(C(=O)OC)[nH]c(=S)[nH]c1=O

>  <TGI>
> 50 µM

$$$$
>  <Compound>
Cn1c(=O)c(Sc2ccccc2F)cc2cnc(NC3CCOCC3)nc21

>  <TGI>
> 25 µM

$$$$
>  <Compound>
O=[N+]([O-])c1ccccc1S(=O)(=O)c1ccccc1[N+](=O)[O-]

>  <TGI>
> 100 µM

$$$$
>  <Compound>
COC(=O)C1=C(O)C(C(=O)OC)[C@]2(O)[C@H](C(=O)OC)[C@H]1C[C@@H](c1ccccc1OC)[C@H]2C(=O)OC (stereo partly drawn)

>  <TGI>
18.3 µM

$$$$
>  <Compound>
CC1=C(C)C(=O)c2c(cc3c4ccccc4ccn23)C1=O

>  <TGI>
> 100 µM

$$$$
>  <Compound>
CN(C)C/C=C(/c1ccc(Br)cc1)c1cccnc1

>  <TGI>
39.1 µM

$$$$
>  <Compound>
CN(C)c1ccc(/C=C2\C[C@H]3[C@@H]4CCC5=CC(=O)CC[C@]5(C)[C@H]4CC[C@]3(C)C2=O)cc1

>  <TGI>
> 100 µM

$$$$
>  <Compound>
CCOC(=O)CC(=O)N(c1ccc(OC)cc1)C(C(=O)OC)c1ccccc1 (stereo not drawn)

>  <TGI>
> 100 µM

$$$$
>  <Compound>
CSc1nc(C)cc(N(C)c2ccccc2)n1

>  <TGI>
> 100 µM

$$$$
>  <Compound>
CCOC(=O)c1c(Nc2ccccc2)sc2cccnc12

>  <TGI>
45.3 µM

$$$$
>  <Compound>
Cc1oncc1C(=O)Nc1ccc(C(F)(F)F)cc1

>  <TGI>
> 100 µM

$$$$
